System: PC-3 prostate
Assay: NCI tumour cell line growth inhibition, 48 h; in the data active means GI50 below about 0.43 µM; inactive means the rest
Labels: True for active, False for inactive

# MOLECULE, TARGET OR SYSTEM, CLASS NAME
measured = [
    ("CC1(C)N=C(N)N=C(N)N1c1ccc(CCC(=O)Nc2cccc(S(=O)(=O)F)c2)cc1", "PC-3 prostate", "False"),
    ("CCN1C(=O)N(CC)C2C1NN=c1s/c(=C\\c3cnc(C)n3C)c(=O)n12 (stereo not drawn)", "PC-3 prostate", "False"),
    ("COc1ccc(-c2cc(=O)c3cccnc3[nH]2)cc1", "PC-3 prostate", "False"),
    ("CC(=O)Nc1nc(C)c(-c2cc3c(c(S(C)(=O)=O)c2)C(=O)N([C@@H](C)C2CC2)C3)s1", "PC-3 prostate", "False"),
    ("COC(=O)[C@]1(C)CC[C@]2(C)CC[C@]3(C)C(=CC(=O)[C@@H]4[C@@]5(C)CCC(=O)NC(C)(C)[C@@H]5CC[C@]43C)[C@@H]2C1", "PC-3 prostate", "False"),
    ("O=C1/C(=C/c2cccc(F)c2)CN(C(=O)C(Cl)Cl)C/C1=C\\c1cccc(F)c1", "PC-3 prostate", "True"),
    ("O=C(CN1CCN(c2ccccn2)CC1)Nc1ccc(Cl)cc1C(=O)c1ccccc1Cl", "PC-3 prostate", "False"),
    ("C[C@H](CCCOS(C)(=O)=O)[C@H]1CC[C@H]2[C@@H]3CC[C@@H]4C[C@H](OS(C)(=O)=O)CC[C@]4(C)[C@H]3CC[C@]12C", "PC-3 prostate", "False"),
]

* * *

Some molecules, each annotated with its measured TGI.
Tested on: SK-MEL-28 melanoma
Test: NCI tumour cell line growth inhibition, 48 h

# MOLECULE, TARGET OR SYSTEM, TGI
measured = [
    ("COc1cc(N(CCC#N)CCC#N)ccc1/C(N=Nc1cccc(C)c1)=N\\NC(=O)c1ccc(C)cc1", "SK-MEL-28 melanoma", "> 100 µM"),
    ("O=C(N/N=C/c1cccc(O)c1)c1ccc(C(F)(F)F)nc1Nc1cccc(C(F)(F)F)c1", "SK-MEL-28 melanoma", "10.1 µM"),
    ("CC1(C)N=C(N)N=C(N)N1c1ccc(CCC(=O)Nc2cccc(S(=O)(=O)F)c2)cc1", "SK-MEL-28 melanoma", "> 100 µM"),
    ("CC(=O)Nc1ccc2c3c(cc(O)c2c1)N(C(=O)CCCCCC(=O)Nc1ccc2c4c(cc(O)c2c1)N(C(=O)OC(C)(C)C)CC4CCl)CC3CCl (stereo not given)", "SK-MEL-28 melanoma", "> 63.2 µM"),
    ("CCCNC(=O)c1cc(NC(=O)c2cc(NC(=O)CCS(=O)(=O)OC)cn2C)cn1C", "SK-MEL-28 melanoma", "> 100 µM"),
    ("O=C1C=C(OCC=C(Cl)Cl)C(=O)c2ccccc21", "SK-MEL-28 melanoma", "23.9 µM"),
    ("CN(C)c1ccc(/C=c2\\sc3nnc(Cc4ccccc4)n3c2=O)cc1", "SK-MEL-28 melanoma", "> 100 µM"),
    ("CCC(=O)Oc1ccc(/C=N/NC(N)=S)nc1", "SK-MEL-28 melanoma", "> 100 µM"),
    ("Cc1ccc(NC(=O)CC2C(=O)Nc3ccccc3S2(=O)=O)cc1C (stereo not given)", "SK-MEL-28 melanoma", "> 100 µM"),
    ("CC1=C(C(=O)NCc2ccccc2)C(c2ccccc2O)C(C(=O)NCc2ccccc2)=C(C)N1", "SK-MEL-28 melanoma", "35.8 µM"),
    ("C#CC1(O)CC(c2ccccc2)N(C)C(c2ccccc2)C1 (stereo not given)", "SK-MEL-28 melanoma", "> 100 µM"),
    ("CC(=O)O[C@@H]1CN(S(=O)(=O)c2ccc(C)cc2)C[C@@H]1C1CCCCC1", "SK-MEL-28 melanoma", "34.3 µM"),
    ("O=C1Cc2c([nH]c3cc(Br)ccc23)-c2ccccc2N1", "SK-MEL-28 melanoma", "> 100 µM"),
    ("CCN(CC)c1ccc(N=C2C=CC(=C(C#N)C#N)c3ccccc32)c(C)c1", "SK-MEL-28 melanoma", "4.22 µM"),
    ("CC(C)(C)c1cc2c(O)c(c1)COCc1cc(C(C)(C)C)cc(c1O)COCc1cc(C(C)(C)C)cc(c1O)COC2", "SK-MEL-28 melanoma", "> 100 µM"),
    ("O=C1NC(=O)C2(CCc3ccc(N(CCCl)CCCl)cc32)N1 (stereo not given)", "SK-MEL-28 melanoma", "38.1 µM"),
    ("CC(=O)Nc1cc(CN2CCCCC2)c(O)c2ncccc12", "SK-MEL-28 melanoma", "> 100 µM"),
    ("O=C(CSCC(=O)N/N=C/c1ccncc1)N/N=C/c1ccncc1", "SK-MEL-28 melanoma", "> 100 µM"),
    ("COc1ccc(NC(C)=O)cc1N1C(=O)/C(=C\\c2cccc(Oc3ccccc3)c2)SC1c1ccccc1 (stereo not given)", "SK-MEL-28 melanoma", "> 100 µM"),
    ("COc1cccc(-c2cc(=O)c3cc(N4CCCC4)ccc3[nH]2)c1", "SK-MEL-28 melanoma", "> 10 µM"),
]

* * *

System: A549 NSCLC
Assay: NCI tumour cell line growth inhibition, 48 h
VALUE KIND: GI50

# COMPOUND, VALUE KIND, VALUE MEASURED
rows = [
    ("Nc1cc(N)c2nc(-c3ccccc3)c(Oc3ccc(Cl)c(Cl)c3)nc2c1", "GI50", "18.1 µM"),
    ("COc1ccc(-c2c(C#N)cnc(N)c2-c2nc3cc(C)c(C)cc3[nH]2)cc1", "GI50", "6.54 µM"),
    ("CN1C(=O)C(C)(C)Oc2c(-c3cn(C)c(=O)c4[nH]ccc34)cc(S(C)(=O)=O)cc21", "GI50", "0.989 µM"),
    ("COc1ccc(OC)c(/C=C/C(=O)c2ccc3cc(OC)ccc3c2)c1", "GI50", "9.52 µM"),
    ("Cn1c(=O)c2[nH]cnc2n(C)c1=O.[CH2-]C(Cc1cccc2cc(C(=O)O)c(=O)oc12)OC.[Hg+2].[OH-] (centres undefined)", "GI50", "19 µM"),
    ("COC(=O)C1=C(O)C(C(=O)OC)[C@@]2(O)[C@@H](C(=O)OC)C(c3ccccc3Cl)C[C@@H]1[C@@H]2C(=O)OC (some centres undefined)", "GI50", "9.04 µM"),
    ("CC1CC2(C)CC(=O)C1C1C(=O)N(CCN3CCOCC3)C(=O)C12 (centres undefined)", "GI50", "> 100 µM"),
    ("CC1(C)N=C(N)N=C(N)N1c1ccc(CCC(=O)Nc2cccc(S(=O)(=O)F)c2)cc1", "GI50", "3.32 µM"),
    ("CC(=O)Nc1nc(C)c(-c2cc3c(c(S(C)(=O)=O)c2)C(=O)N([C@@H](C)C2CC2)C3)s1", "GI50", "28 µM"),
]

* * *

System: IGROV1 ovarian
Experiment: NCI tumour cell line growth inhibition, 48 h

# COMPOUND, TGI
rows = [
    ("CN/N=C(/CC(=O)c1sc(NNC(C)=O)nc1C)C(=O)Nc1ccc(OC)cc1OC", "> 100 µM"),
    ("CN(C)c1ccc(/C=N/NC(=O)c2cnc3ccccc3c2)cc1", "> 100 µM"),
    ("O=C1CC2OCC=C3CN4CCC56c7ccccc7N1C5C2C3CC46 (configuration not stated) (tested in a mixture with another compound)", "> 50 µg/mL"),
    ("COc1cc(C2SC(N)=Nc3c2c(C)nn3C(=O)c2ccc(Cl)cc2)ccc1O (configuration not stated)", "> 10 µM"),
    ("COc1ccc([Se]c2ccc(OC)cc2)cc1", "> 100 µM"),
    ("C=C1CC(CC(=O)C(C)CC2CC(=C)C(=O)O2)OC1=O (configuration not stated)", "> 100 µM"),
    ("CCCNC(=O)Nc1ccc2c(c1)Cc1cc(N(CCCl)CCCl)ccc1-2", "50.6 µM"),
]

* * *

# reported TGI; entries follow
System: SF-295 CNS
Assay: NCI tumour cell line growth inhibition, 48 h
VALUE KIND: TGI

# COMPOUND, VALUE KIND, VALUE MEASURED
measured = [
    ("Cn1c2c(c3c(=O)[nH]ncc31)CCCc1ccccc1-2", "TGI", "> 100 µM"),
    ("C[C@]12CC[C@H]3[C@@H](CCC4=CC(=O)CC[C@@]43C)[C@@H]1CC[C@@H]2OC(=O)c1cccc2c(=O)c3ccccc3[nH]c12", "TGI", "> 100 µM"),
    ("COc1cc(C2S/C(=C/c3ccccc3)C(=O)N2c2ccccn2)cc(OC)c1OC (centres undefined)", "TGI", "> 83.3 µM"),
    ("O=C(O)CSc1nnc2c3ccccc3c3ccccc3c2n1", "TGI", "> 100 µM"),
    ("NC(N)=NC(N)=NCc1ccco1", "TGI", "> 1250 µM"),
    ("COc1ccc(NC(C)=O)cc1N1C(=O)/C(=C\\c2cccc(Oc3ccccc3)c2)SC1c1ccccc1 (centres undefined)", "TGI", "> 100 µM"),
    ("O=C(CSCC(=O)N/N=C/c1ccncc1)N/N=C/c1ccncc1", "TGI", "> 100 µM"),
    ("O=c1cc(-c2cccc(Br)c2)[nH]c2cc3c(cc12)OCO3", "TGI", "6.52 µM"),
    ("COc1ccc(S(=O)(=O)N/N=C/CN2C(=O)c3ccccc3C2=O)cc1", "TGI", "> 100 µM"),
    ("COc1cc[nH]c1/C=C1\\C(=O)Nc2ccc([N+](=O)[O-])c(N3CC[C@@H](O)C3)c21", "TGI", "3.4 µM"),
    ("ClCCCN1CCCCC1CCl (centres undefined)", "TGI", "> 100 µM"),
    ("Cc1ccc(C(=O)C(C)N)cc1C (centres undefined)", "TGI", "> 100 µM"),
    ("C(=NCCN=Cc1cccc2ccccc12)c1cccc2ccccc12", "TGI", "> 100 µM"),
    ("NC(C(=O)O)c1ccc(C(=O)O)cc1 (centres undefined)", "TGI", "> 100 µM"),
    ("CCCCn1c2c(n(CCCC)c1=[Se])-c1c(n(CCCC)c(=[Se])n1CCCC)S[Se][Se]S2", "TGI", "30.9 µM"),
    ("CCCC(CCC)C(=O)O", "TGI", "> 20000 µM"),
    ("COc1ccc(-c2cc(-c3ccccc3)nc(N)n2)c(O)c1", "TGI", "> 100 µM"),
    ("C=C(C)COC(=O)COCC(=O)OCC(=C)C", "TGI", "> 100 µM"),
    ("CCCCCCCCCCCCCCCC(N)c1ccccc1 (centres undefined)", "TGI", "3.35 µM"),
]
